Entry source: PubChem BioAssay

Task for the reader: assign each of the following compounds its reported composite z-score.
TARGET DESC: Torsin-1A-interacting protein 2 (Homo sapiens) (UniProt Q8NFQ8)
Sequence (Q8NFQ8 whole entry, looked up): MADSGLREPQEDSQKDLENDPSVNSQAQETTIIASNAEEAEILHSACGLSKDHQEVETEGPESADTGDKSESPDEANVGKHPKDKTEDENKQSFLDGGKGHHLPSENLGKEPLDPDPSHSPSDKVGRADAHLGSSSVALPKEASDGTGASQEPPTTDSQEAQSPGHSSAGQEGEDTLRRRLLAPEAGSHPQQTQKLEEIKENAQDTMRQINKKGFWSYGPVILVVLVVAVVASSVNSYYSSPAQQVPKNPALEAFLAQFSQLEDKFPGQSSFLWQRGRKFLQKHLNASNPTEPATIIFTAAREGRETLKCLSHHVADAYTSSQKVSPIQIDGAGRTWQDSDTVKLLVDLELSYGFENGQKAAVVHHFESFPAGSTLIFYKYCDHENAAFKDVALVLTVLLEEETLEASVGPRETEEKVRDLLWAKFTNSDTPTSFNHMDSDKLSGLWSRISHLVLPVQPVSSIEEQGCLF
PROTOCOL DETAILS: LULL1 binders on small-molecule microarray, primary screen, cell lysate, human LULL1 lysate, 635/667 nm fluorescence (AID 1092);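 also: probe is lysate of COS7 cells overexpressing human LULL1; score merges per-feature 667 nm fluorescence with signal-to-noise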
APPLIED CONDITIONS: hLULL1 lysate binding, 635 nm fluorescence, higher = more signal
Reply with the value as a number alone.

GET /value?item= CC(CCN1CCCc2nc(C)c(C)cc21)=NOC(C)CN1CCCCc2nc(C)c(C)cc21 (stereo not given) &field=composite z-score returns 1.22

GET /value?item= COC(=O)CC=C[C@@H](C)[C@@H](C=NOC[C@H]1O[C@H](c2ccccc2)C=C[C@@H]1Oc1ccc(OC)cc1)OC &field=composite z-score returns -0.072

GET /value?item= O=C1C[C@@H](O)[C@@H](O)[C@@H]2[C@@H]3C(=O)N(c4cccc(Oc5ccccc5)c4)C(=O)[C@@H]3CC[C@H]12 &field=composite z-score returns 0.685

GET /value?item= CCCNC(=O)OC[C@H]1O[C@H](c2ccccc2)C=C[C@@H]1Oc1ccc(OC)cc1 &field=composite z-score returns 0.361

GET /value?item= C[C@H]1COC(=O)[C@@H]2CCCN2C(=O)[C@@H](C)COC(=O)[C@H](Cc2ccccc2)NC1=O &field=composite z-score returns 1.24

GET /value?item= Cc1cc2c(nc1C)CCCCN2CC(C)ON=C[C@@H](C)[C@H](OCc1ccccc1)C(C)C (stereo not given in full) &field=composite z-score returns -1.02

GET /value?item= COc1ccc(COC(=O)NN=C2C[C@@H](O)[C@@H](O)[C@@H]3[C@@H]4C(=O)N(c5cccc(Oc6ccccc6)c5)C(=O)[C@@H]4CC[C@@H]23)cc1 &field=composite z-score returns 0.624

GET /value?item= C[C@@H](c1ccccc1)N1C(=O)[C@H]2[C@H]3[C@H](O)[C@H](O)CC(=NO[C@@H]4O[C@H](CO)[C@@H](O)[C@H](O)[C@H]4O)[C@H]3CC[C@H]2C1=O &field=composite z-score returns 0.288

GET /value?item= CC[C@@H](c1ccccc1)n1c(=O)n2n(c1=O)[C@H]1[C@H](O)[C@@H]3O[C@@H]3C(=O)[C@H]1CC2 &field=composite z-score returns 0.396

GET /value?item= COc1cccc([C@H]2Oc3ccc(OC)cc3C(=NO[C@@H](C)c3cn([C@H](CO)Cc4ccccc4)nn3)[C@@H]2O)c1 &field=composite z-score returns -0.123

GET /value?item= C[n+]1ccc(-c2ccc(CO)cc2)cc1 &field=composite z-score returns -0.202

GET /value?item= CC(=O)OC[C@H]1O[C@@H](ON=C(C)CCN2CCCc3nc(C)c(C)cc32)[C@H](OC(C)=O)[C@@H](OC(C)=O)[C@@H]1OC(C)=O &field=composite z-score returns 0.993

GET /value?item= CO[C@H]1COC(=O)[C@@H](C)COC(=O)[C@H](COCc2ccccc2)NC(=O)CC=C[C@H]1C &field=composite z-score returns -1.28

GET /value?item= COc1cccc([C@H]2Oc3ccc(OC)cc3C(=NO[C@H](C)c3cn([C@H](CO)Cc4ccccc4)nn3)[C@@H]2O)c1 &field=composite z-score returns 0.202

GET /value?item= O=C(NN=C1C[C@@H](O)[C@@H](O)[C@@H]2[C@@H]3C(=O)N(C[C@@H]4CCCO4)C(=O)[C@@H]3CC[C@@H]12)OCc1ccccc1 &field=composite z-score returns -0.0366
